- Test system: NCI/ADR-RES ovarian
- Procedure Details: NCI tumour cell line growth inhibition, 48 h
Reported Metric: TGI

I have 6 compounds here; please give me TGI for each one.
1. c1ccc2nc3c(nc2c1)sc1nc2ccccc2n13
2. CC1=NN(c2cccc(Cl)c2)C(=N/c2nc3ccccc3s2)/C1=C\c1ccccc1O
3. CC(SC(=S)N1CCCC1)C(=O)Nc1nnc(-c2ccc(Cl)cc2)o1 (stereo unspecified)
4. N#CCN(Cc1ccccc1)[C@H]1CCC[C@]1(O)/C=C/c1ccc2c(c1)OCO2
5. O=C(O)CSCC(=O)c1ccccc1
6. CN(C)Cc1cc(N=Nc2c(Cl)cccc2Cl)ccc1O

Result ::
["> 100 µM", "63.7 µM", "> 100 µM", "42 µM", "> 100 µM", "> 100 µM"]

I have 8 compounds here; please give me TGI for each one.
1. O=P(Oc1ccccc1)(Oc1ccccc1)C(O)c1ccccc1 (stereo unspecified)
2. O=C1C(Cl)=C(Oc2ccccc2)C(=O)c2ccccc21
3. C=CCN1C(=O)/C(=C/c2ccccc2)N=C1SC/C=C/C
4. [N-]=[N+]=NC1(c2ccccc2)C(=O)c2cccc3c4ccccc4n(c23)C1=O (stereo unspecified)
5. O=S(=O)(O)c1cccc2ccc(O)c(N=Nc3ccc(S(=O)(=O)c4ccc(N=Nc5c(O)ccc6cccc(S(=O)(=O)O)c56)cc4)cc3)c12
6. Cc1ccc([N+](=O)[O-])cc1S(=O)(=O)Nc1ccc(C2=NOC(c3ccccc3)C2)cc1 (stereo unspecified)
7. O=C(c1c(F)c(F)c(F)c(F)c1F)n1c(=O)[nH]c2ccccc21
8. CN(C)CCCNC(=O)c1cc(NC(=O)c2cc(NC(=O)CCCN3c4ccccc4C=Cc4ccccc43)cn2C)cn1C

Result ::
1: > 100 µM; 2: 37.9 µM; 3: > 100 µM; 4: > 100 µM; 5: > 100 µM; 6: 67.3 µM; 7: 58.1 µM; 8: 59.9 µM

I have 4 compounds here; please give me TGI for each one.
1. CCN(Cc1ccc(F)cc1F)c1ccc(CO)c(Cl)c1
2. CCOC(=O)c1csc(NC(=O)CN2CCCCC2)n1
3. Nc1ccc2c(c1)N(C(=O)CCCC(=O)N1CC(CCl)c3ccc(N)cc31)CC2CCl (stereo unspecified)
4. CSC1=C(C)S/C(=C\c2ccc(/C=C3\SC(C)=C(SC)S3)cc2)S1

Result ::
["32 µM", "> 100 µM", "42.7 µM", "> 100 µM"]

I have 3 compounds here; please give me TGI for each one.
1. COC(=O)/N=[N+](\[O-])C(c1ccc(Cl)cc1)c1ccc(Cl)cc1
2. C[C@@H]1C(=O)O[C@@H]2C[C@@]1(C)[C@@H]1C(=O)C3(O)OC14C2(C)OC(=O)[C@@]4(O)CCC1C3C(O)C=C2CC=CC(=O)[C@@]21C (stereo partly specified)
3. O=C(O)C(Cc1ccccc1-c1ccccc1)C(=O)O

Result ::
["> 100 µM", "> 100 µM", "> 100 µM"]

---

- System: HCT-15 colon
- Procedure Details: NCI tumour cell line growth inhibition, 48 h
Reported Metric: TGI

A selection of reference data follows.
INSERT INTO assay_data (compound, reading) VALUES
  ('N#Cc1c(-c2cccc(Br)c2)cc(-c2ccc(Cl)cc2)nc1N', '30 µM'),
  ('OCc1ccc(N(Cc2ccc(F)cc2)C2CCC2)cc1Cl', '25.7 µM'),
  ('CCCCCCC(O)C/C=C/CCCCCC/C(C(=O)OC)=C(/O)C(=O)OCC (stereo unspecified)', '> 100 µM');

I have 2 compounds here; please give me TGI for each one.
1. N#Cc1cccc(Nc2ccccc2SSc2ccccc2Nc2cccc(C#N)c2)c1
2. Cc1ccc(C)c(-n2c(-c3ccc(Br)cc3)csc2=NC(=O)c2ccccc2F)c1

Result ::
> 21.5 µM
> 100 µM

I have 6 compounds here; please give me TGI for each one.
1. CCOC(=O)C(C)c1nc2cc(F)c(N3CCOCC3)cc2[nH]c1=O (stereo unspecified)
2. COc1ccc2c(CN3CCC(CO)CC3)cc3cc4c(cc3c2c1)OCO4
3. CCCCC1=C(C(=O)N2CCOCC2)C2(OCCO2)C1Cl (stereo unspecified)
4. COc1c(O)cc2oc3cc(O)c(CC=C(C)C)c(O)c3c(=O)c2c1C/C=C(\C)CCC=C(C)C
5. CSC1=C(C)S/C(=C\c2ccc(/C=C3\SC(C)=C(SC)S3)cc2)S1
6. CC(=O)N1c2ccccc2C2=NN=C(N(C)C)SC21 (stereo unspecified)

Result ::
["> 100 µM", "3.49 µM", "> 100 µM", "11.7 µM", "> 100 µM", "15.6 µM"]

I have 7 compounds here; please give me TGI for each one.
1. CN(C)Cc1cc(N=Nc2c(Cl)cccc2Cl)ccc1O
2. COc1ccc(-c2cc(-c3ccccc3)c3c(n2)-c2ccccc2NC(=O)C3)cc1
3. COc1cc(-c2cc(C(=O)Nc3nc4ccccc4s3)nc3cc(-c4ccccc4)nn23)cc(OC)c1OC
4. COc1cccc2c(Nc3ccc(C(=O)NCCNCCO)cc3)cc(-c3ccccc3)nc12
5. COc1ccc(OC)c2sc(N3C(=O)/C(=C/c4ccc(N(C)C)cc4)N=C3c3ccccc3)nc12
6. O=C(Nc1ncc([N+](=O)[O-])s1)c1cccc([N+](=O)[O-])c1
7. COC(=O)C1=C(O)C(C(=O)OC)[C@]2(O)[C@H](C(=O)OC)[C@H]1C[C@@H](c1ccc(O)cc1)[C@H]2C(=O)OC (stereo partly specified)

Result ::
["> 100 µM", "> 100 µM", "> 100 µM", "> 100 µM", "> 100 µM", "> 100 µM", "> 100 µM"]

# credit: PubChem BioAssay (NCI)
